Values from patent US20150307625A1

EC50 by entry:
EXPERIMENTAL SYSTEM: T1, human activated Protein C (human, UniProt P04070 43-461)
T1 construct: also called human aPC; hAPC
ASSAY COMMENT: ELISA, hIgG1
MEASURE: EC50 (nM)

>>> data_value("T46J23-hIgG1 (antibody, V domains shown, also called T46J23-IgG) VH: EVQLLESGGGLVQPGGSLRLSCAASGFTFGNHWMTWVRQAPGKGLEWVSGVSWNGSRTHYADSVKGRFTISRDNSKNTLYLQMNSLRAEDTAVYYCALTGRSGWMRFPNWFDPWGQGTLVTVTS VL: LTQPPSASGTPGQRVTISCTGTSSNIGAGYDVHWYQQLPGTAPKLLIYDNNNRPSGVPDRFSGSKSGTSASLAISGLRSEDEADYYCAAWDDSLNGVVFGGGTKLTVLG")
2.2
>>> data_value("C7I7 hIgG1 (antibody, V domains shown, also called C717-IgG) VH: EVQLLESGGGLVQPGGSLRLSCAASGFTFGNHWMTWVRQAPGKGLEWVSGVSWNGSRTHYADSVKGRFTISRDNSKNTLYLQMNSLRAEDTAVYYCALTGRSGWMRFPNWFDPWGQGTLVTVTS VL: QSVLTQPPSASGTPGQRVTISCTGSSSNIGAGYDVHWYQQLPGTAPKLLIYGNSNRPSGVPDRFSGSKSGTSASLAISGLRSEDEAAYYCSSYVGSDLVVFGGGTKLTVLG")
2.7
>>> data_value("C22J13 hIgG1 (antibody, V domains shown) VH: EVQLLESGGGLVQPGGSLRLSCAASGFTFSSNYMSWVRQAPGKGLEWVAVISYDGSNKYYADSVKGRFTISRDNSKNTLYLQMNSLRAEDTAMYYCALTGRSGWMRFPNWFDPWGQGTLVTVTS VL: QSVLTQPPSASGTPGQRVTISCSGSDSNIGSNAVNWYQQLPGTAPKLLIYDNNKRPSGVPDRFSGSKSGTSASLAISGLRSEDEADYYCSSYTSSNTVVFGGGTKLTVLG")
0.5
>>> data_value("C25K23 IgG1 (antibody, V domains shown, the claims call them variable regions; also called C25K23 hIgG; C25K23 hIgG1) VH: EVQLLESGGGLVQPGGSLRLSCAASGFTFSSYWMSWVRQAPGKGLEWVSGVSWNGSRTHYADSVKGRFTISRDNSKNTLYLQMNSLRAEDTAVYYCALTGRSGWMRFPNWFDPWGQGTLVTVSS VL: QSVLTQPPSASGTPGQRVTISCTGSSSNIGAAYDVHWYQQLPGTAPKLLIYGNNKRPSGVPDRFSGSKSGTSASLAISGLRSEDEADYYCQSYDSSLSGSVFGGGTKLTVLG")
1.2
